Each recorded value in this set is attributed to patent US8318764B2.

tested_system: JAK3: Recombinant human kinase domain (810-1124) (Homo sapiens)
Construct: Recombinant human kinase domain (810-1124)
Sequence (P52333 810-1124): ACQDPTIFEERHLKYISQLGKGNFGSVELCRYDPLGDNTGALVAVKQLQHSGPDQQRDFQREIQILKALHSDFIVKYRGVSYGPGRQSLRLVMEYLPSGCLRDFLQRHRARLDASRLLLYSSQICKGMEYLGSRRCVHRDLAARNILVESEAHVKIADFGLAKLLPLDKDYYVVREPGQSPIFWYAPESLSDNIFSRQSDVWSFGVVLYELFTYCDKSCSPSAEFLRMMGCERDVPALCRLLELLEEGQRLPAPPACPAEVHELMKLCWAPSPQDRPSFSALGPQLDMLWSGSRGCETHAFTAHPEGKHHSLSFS
experimental_details: Determination of IC50 of Janus Kinase (JAK) inhibition, radioactive 33P-ATP end-point assay, JAK3
applied_conditions: 0.1 nM JAK3, ATP 1.5 uM, peptide 50 uM, 20 minutes, room temperature; read-out: JAK3 Enzyme IC50
Assign IC50 to each entry below.
One number for each entry, in nM.

- compound: "CC1(C)CCCCOc2cccc(n2)Nc2n[nH]c3c2CN(C3)C1=O"
  IC50 (nM): 1040

input: Find the measured IC50 of CC1CCc2cccc(n2)Nc2n[nH]c3c2CN(C3)C(=O)C(C)(C)CC1 (stereo not drawn) with JAK3: Recombinant human kinase domain (810-1124) (Homo sapiens) as test system.
output: 487

* * *

Would you mind telling me the reported pIC50 of each entry?
tested_system: JAK3: Recombinant human kinase domain (810-1124) (Homo sapiens)
Construct: Recombinant human kinase domain (810-1124)
experimental_details: Determination of IC50 of Janus Kinase (JAK) inhibition, radioactive 33P-ATP end-point assay, JAK3
applied_conditions: 0.1 nM JAK3, ATP 1.5 uM, peptide 50 uM, 20 minutes, room temperature; read-out: JAK3 Enzyme IC50
Give bare numbers, as −log10 of the molar value.

Past entries and their recorded results:
- molecule: "CC1(C)CCCCc2cccc(n2)Nc2n[nH]c3c2CN(C3)C1=O [Compound I-7]"
  tested_system: "JAK3: Recombinant human kinase domain (810-1124) (Homo sapiens)"
  result_type: "pIC50"
  readout_number: 6.09
- molecule: "CC1(C)CCCCCOc2cccc(n2)Nc2n[nH]c3c2CN(C3)C1=O [Compound I-10]"
  tested_system: "JAK3: Recombinant human kinase domain (810-1124) (Homo sapiens)"
  result_type: "pIC50"
  readout_number: 6.46

Would you mind giving pIC50 for every molecule in the list below?
1. CC1CCCCC(C)(C)C(=O)N2Cc3[nH]nc(c3C2)Nc2cccc1n2 (stereo not drawn) [Compound I-2]
2. CCC1(C)CCCCOc2cccc(n2)Nc2n[nH]c3c2CN(C3)C1=O (stereo not drawn) [Compound I-5]
3. O=C1N2Cc3[nH]nc(c3C2)Nc2cccc(n2)CCCCCC12CCCCC2 [Compound I-14]

output:
1: 6.10; 2: 6.28; 3: 5.38

Hi, could you look up pIC50 for each item in my list?
1. O=C1N2Cc3[nH]nc(c3C2)Nc2cccc(n2)CCCCCC12CCCC2 [Compound I-15]
2. CC12CCN(CCCCc3cccc(n3)Nc3n[nH]c4c3CN(C4)C1=O)C2 (stereo not drawn) [Compound I-12]

output:
6.35
7.37
